- target_under_test: T1, recombinant human NRP-1 (human, UniProt O14786 22-856, limits assumed)
- T1 construct: also called biotinylated human NRP-1
- measurement_description: blocking ELISA: human NRP-1 coated, VEGFA added with IgG1 antibody; competitor VEGFA
Here the recorded pIC50 is given for each entry.
pIC50 (log units): -log10 of the concentration in mol/L.

Known results for binders:
MAB9 (antibody, V domains shown) VH: EVQLLESGGGLVQPGGSLRLSCAASGFTFKSYAMVWVRQAPGKGLEWVSIISGSGGATYYADSVKGRFTISRDNSKNTLYLQMNSLRAEDTAVYYCAKDPGYDSSRYYYSNYGMDVWGQGTTVTVSS VL: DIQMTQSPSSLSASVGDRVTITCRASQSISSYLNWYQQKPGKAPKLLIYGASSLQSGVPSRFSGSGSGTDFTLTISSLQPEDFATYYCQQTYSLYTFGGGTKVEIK ... 8.19
MAB10 (antibody, V domains shown) VH: EVQLLESGGGLVQPGGSLRLSCAASGFTFSSVAMVWVRQAPGKGLEWVSAISGSGGATYYADSVKGRFTISRDNSKNTLYLQMNSLRAEDTAVYYCAKDPGYDSSRYYYSNYGMDVWGQGTTVTVSS VL: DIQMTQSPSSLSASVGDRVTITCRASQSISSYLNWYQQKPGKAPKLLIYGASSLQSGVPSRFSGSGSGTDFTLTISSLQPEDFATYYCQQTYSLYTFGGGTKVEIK ... 8.17

Look at this binder and give its reported pIC50. MAB8 (antibody, V domains shown) VH: EVQLLESGGGLVQPGGSLRLSCAASGFTFASYAMVWVRQAPGKGLEWVSIISGSGGSTYYADSVKGRFTISRDNSKNTLYLQMNSLRAEDTAVYYCAKDPGYDSSRYYYSNYGMDVWGQGTTVTVSS VL: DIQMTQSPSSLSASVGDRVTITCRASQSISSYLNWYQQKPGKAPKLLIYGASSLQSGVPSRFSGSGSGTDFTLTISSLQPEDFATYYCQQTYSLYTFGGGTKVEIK 8.14

The measured values listed here are drawn from patent US20190119389A1.
